From: paper PMC8185074

- measurement target: HDAC3 (Homo sapiens)
- Construct: purchased Reaction Biology Corporation (assay run by the CRO)
- Sequence (O15379 whole entry): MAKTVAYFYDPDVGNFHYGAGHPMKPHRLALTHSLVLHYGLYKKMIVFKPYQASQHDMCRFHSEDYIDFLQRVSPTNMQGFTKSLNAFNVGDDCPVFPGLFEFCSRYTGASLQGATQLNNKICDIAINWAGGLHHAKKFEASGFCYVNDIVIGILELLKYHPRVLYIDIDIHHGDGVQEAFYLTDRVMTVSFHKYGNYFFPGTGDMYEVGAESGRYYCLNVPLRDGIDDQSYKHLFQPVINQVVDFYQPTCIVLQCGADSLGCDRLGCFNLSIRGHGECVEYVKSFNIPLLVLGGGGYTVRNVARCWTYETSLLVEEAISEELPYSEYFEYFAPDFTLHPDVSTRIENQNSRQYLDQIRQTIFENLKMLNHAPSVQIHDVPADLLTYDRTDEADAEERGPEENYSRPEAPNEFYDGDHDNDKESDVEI
- Sequence (Q9Y618 395-489 partner limits assumed): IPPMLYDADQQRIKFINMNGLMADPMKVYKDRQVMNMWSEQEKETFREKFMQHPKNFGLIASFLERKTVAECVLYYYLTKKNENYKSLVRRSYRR
- test description: HDAC3 inhibition, full IC50 measurement (Reaction Biology; fluorogenic p53 peptide RHKK(Ac)AMC)
- Assay type: biochemical
- condition context: Conc. 1.11E-06 M, t1
Peptide text beside a SMILES is read from it.
readout: HDAC3 activity raw data (signal)
Format: numeric value only, no unit, no commentary.

Task: I am curious: what HDAC3 activity raw data (signal) value has been reported for CC(C)C[C@H]1NC(=O)[C@H](Cc2c[nH]c3ccccc23)NC(=O)[C@H](CCCCCS)NC(=O)[C@@H](Cc2ccc(O)cc2)NC(=O)[C@@H](C(C)C)NC(=O)[C@H](Cc2c[nH]cn2)NC(=O)CNC(=O)CNC(=O)[C@@H](CO)NC1=O [des2.2.0, SHA-Trp-dLeu-dSer-Gly-Gly-His-dVal-dTyr] (HELM PEPTIDE1{G.G.H.[dV].[dY].[O=C([C@H](CCCCCS)N[*:1])[*:2]].W.[dL].[dS]}$PEPTIDE1,PEPTIDE1,1:R1-9:R2$$$V2.0) ?
Output: 913376

###

- measurement target: HDAC6 (Homo sapiens)
- Construct: purchased Reaction Biology Corporation (assay run by the CRO)
- Sequence (Q9UBN7 whole entry): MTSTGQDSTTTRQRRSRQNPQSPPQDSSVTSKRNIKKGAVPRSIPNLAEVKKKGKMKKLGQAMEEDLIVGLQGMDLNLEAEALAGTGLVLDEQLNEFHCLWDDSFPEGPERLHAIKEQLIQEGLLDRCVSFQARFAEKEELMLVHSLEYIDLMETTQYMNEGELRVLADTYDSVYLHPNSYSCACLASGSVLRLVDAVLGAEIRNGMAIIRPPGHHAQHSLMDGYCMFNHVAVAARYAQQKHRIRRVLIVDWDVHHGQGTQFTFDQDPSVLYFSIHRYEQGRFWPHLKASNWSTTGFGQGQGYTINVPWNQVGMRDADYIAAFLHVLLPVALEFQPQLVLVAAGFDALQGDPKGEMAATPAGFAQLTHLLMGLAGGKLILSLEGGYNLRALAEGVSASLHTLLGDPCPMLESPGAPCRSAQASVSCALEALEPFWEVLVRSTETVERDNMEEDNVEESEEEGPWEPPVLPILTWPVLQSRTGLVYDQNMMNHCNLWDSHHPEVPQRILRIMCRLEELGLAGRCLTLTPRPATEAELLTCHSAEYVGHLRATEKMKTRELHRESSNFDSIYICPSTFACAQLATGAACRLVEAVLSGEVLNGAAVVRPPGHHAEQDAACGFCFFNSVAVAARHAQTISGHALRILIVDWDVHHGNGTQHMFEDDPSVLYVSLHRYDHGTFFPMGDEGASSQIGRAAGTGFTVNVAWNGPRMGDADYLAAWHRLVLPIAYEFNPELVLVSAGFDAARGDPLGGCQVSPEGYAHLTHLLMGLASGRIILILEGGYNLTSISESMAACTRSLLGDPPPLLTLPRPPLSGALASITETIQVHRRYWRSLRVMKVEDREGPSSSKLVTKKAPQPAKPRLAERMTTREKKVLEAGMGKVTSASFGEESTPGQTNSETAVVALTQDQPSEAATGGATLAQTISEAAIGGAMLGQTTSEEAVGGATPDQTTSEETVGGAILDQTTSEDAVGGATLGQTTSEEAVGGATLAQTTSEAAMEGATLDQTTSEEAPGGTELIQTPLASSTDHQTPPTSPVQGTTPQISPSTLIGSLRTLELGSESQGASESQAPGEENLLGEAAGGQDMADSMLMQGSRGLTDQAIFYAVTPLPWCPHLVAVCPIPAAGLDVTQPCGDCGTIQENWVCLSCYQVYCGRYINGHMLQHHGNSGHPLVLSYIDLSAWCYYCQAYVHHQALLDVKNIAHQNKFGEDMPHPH
- test description: HDAC6 inhibition, full IC50 measurement (Reaction Biology; fluorogenic p53 peptide RHKK(Ac)AMC)
- Type: biochemical
- condition context: Conc. 1.23E-07 M, t2
Peptide text beside a SMILES is read from it.
Collected HDAC6 activity raw data (signal) values appear next to each entry.
Give your answer as a number; write no unit.

compound	readout	experimental value
N=C(N)NCCC[C@@H]1NC(=O)[C@H](Cc2c[nH]c3ccccc23)NC(=O)[C@H](CC(=O)O)NC(=O)[C@@H](CO)NC(=O)[C@H](Cc2c[nH]c3ccccc23)NC(=O)[C@H](CCCCCS)NC(=O)[C@H](CCC(N)=O)NC1=O [des4.1.0, SHA-Trp-dSer-Asp-Trp-Arg-Gln] (HELM PEPTIDE1{D.W.R.Q.[O=C([C@H](CCCCCS)N[*:1])[*:2]].W.[dS]}$PEPTIDE1,PEPTIDE1,1:R1-7:R2$$$V2.0)	HDAC6 activity raw data (signal)	163263
C[C@H](O)[C@H]1NC(=O)[C@H](Cc2c[nH]c3ccccc23)NC(=O)[C@H](CCCCCS)NC(=O)[C@H](CCCCN)NC(=O)[C@@H](CC(=O)O)NC(=O)[C@@H](CCCCN)NC(=O)[C@@H](CO)NC(=O)[C@H](CC(N)=O)NC(=O)[C@H](CC(=O)O)NC1=O [des2.1.0, SHA-Trp-dThr-Asp-Asn-dSer-dLys-dAsp-Lys] (HELM PEPTIDE1{D.N.[dS].[dK].[dD].K.[O=C([C@H](CCCCCS)N[*:1])[*:2]].W.[dT]}$PEPTIDE1,PEPTIDE1,1:R1-9:R2$$$V2.0)	HDAC6 activity raw data (signal)	131097

Task: Which HDAC6 activity raw data (signal) is reported with HDAC6 (Homo sapiens) for this entry: NCCCC[C@@H]1NC(=O)[C@@H]2CCCN2C(=O)[C@H](CC(N)=O)NC(=O)[C@H](CCCCCS)NC(=O)CNC(=O)[C@H](Cc2c[nH]c3ccccc23)NC(=O)[C@@H](CCCCN)NC(=O)[C@H](CCC(N)=O)NC1=O [des1.1.0, SHA-Asn-Pro-Lys-Gln-dLys-Trp-Gly] (HELM PEPTIDE1{G.[O=C([C@H](CCCCCS)N[*:1])[*:2]].N.P.K.Q.[dK].W}$PEPTIDE1,PEPTIDE1,1:R1-8:R2$$$V2.0) ?
Output: 107875
